Below: a set of entries, each annotated with reported interaction score.
System: T1, 4H3638-bA
T1 chain: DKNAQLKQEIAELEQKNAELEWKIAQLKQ
Measurement protocol: two-hybrid library CCNG1;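 also: natural log of median RNA to DNA barcode read ratio; higher means stronger binding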
A bare number is all that is needed in reply.

Here's what some known entries look like.
DENAQLKQEIAELKQENAELKWKIAQLEQ [4H1629-bA]
-0.477
DENAQLKQENAELEQKIAELKWKIAQLKQ [4H1710-bA]
0.729
DENAQLEQENAELKQEIAELEWKIAQLKQ [4H1222-bA]
-0.958
DENAQLEQKIAELKQEIAELEWENAQLKQ [4H1348-bA]
-0.0281
DKNAQLEQEIAELKQKIAELEWENAQLKQ [4H3172-bA]
-0.395

Inquiry: Return reported interaction score. Input binder: DENAQLKQKIAELEQEIAELKWENAQLKQ [4H1804-bA]
Reply text: -0.376

Inquiry: Please indicate interaction score recorded for DKNAQLKQEIAELEQKNAELEWKIAQLKQ [4H3638-bA]
Reply text: 0.115

Inquiry: Item DENAQLKQKNAELKQEIAELEWEIAQLEQ [4H1985-bA] : provide interaction score
Reply text: -0.944

Inquiry: Identify measured interaction score corresponding to DKNAQLKQEIAELEQKIAELKWKNAQLEQ [4H3631-bA]
Reply text: -0.00348

Inquiry: Fill in interaction score for record DKNAQLEQEIAELEQKNAELKWEIAQLEQ [4H3129-bA]
Reply text: 0

Inquiry: Tell us which interaction score value is on record for DKNAQLEQKNAELEQEIAELEWKIAQLKQ [4H3462-bA]
Reply text: -1.05

Inquiry: # return recorded interaction score for input DENAQLEQKIAELKQEIAELKWKNAQLEQ [4H1359-bA]
Reply text: -0.492

Inquiry: // Input: DENAQLEQKIAELKQKNAELEWEIAQLEQ [4H1393-bA] . Output its interaction score only.
Reply text: 1.8

Inquiry: Give the reported value of interaction score for this record: DENAQLEQKNAELEQKIAELKWEIAQLEQ [4H1449-bA]
Reply text: -1.83

Inquiry: # return recorded interaction score for entry DKNAQLEQKIAELKQENAELEWKIAQLKQ [4H3414-bA]
Reply text: 1.02
